# studyTarget: Mot3 (UniProt P54785)
# Sequence: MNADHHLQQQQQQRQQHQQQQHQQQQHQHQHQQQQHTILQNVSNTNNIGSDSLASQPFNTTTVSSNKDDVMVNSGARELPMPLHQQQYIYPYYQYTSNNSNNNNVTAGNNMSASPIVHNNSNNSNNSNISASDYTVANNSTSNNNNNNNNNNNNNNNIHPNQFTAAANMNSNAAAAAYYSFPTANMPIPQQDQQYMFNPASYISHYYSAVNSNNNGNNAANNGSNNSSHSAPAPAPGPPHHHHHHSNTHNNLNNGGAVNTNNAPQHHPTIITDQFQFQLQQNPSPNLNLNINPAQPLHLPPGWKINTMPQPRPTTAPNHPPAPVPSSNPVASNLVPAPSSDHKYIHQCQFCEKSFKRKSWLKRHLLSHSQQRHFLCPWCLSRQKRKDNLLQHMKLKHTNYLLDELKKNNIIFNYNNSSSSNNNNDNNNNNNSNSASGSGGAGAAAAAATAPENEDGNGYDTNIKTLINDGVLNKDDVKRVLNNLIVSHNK
# protocolDescription: PBM E-score (8-mer binding enrichment) (E-score (-0.5 to 0.5)); higher = stronger / more preferred TF binding
# studyConditions: protein concentration: 200 nM; construct: GST-full length
Whole data set: some 33,000 sequences, median “E-score (-0.5 to 0.5)” near -0.035, cut for the highest 2% near 0.34. The entries come from a sample that favours the highest values as a whole.
Overview of recorded PBM E-score for various sequences
resultType: PBM E-score

[
  {
    "biosequence": "GTATGTAA",
    "assayValue": 0.404
  },
  {
    "biosequence": "ACCTGAAC",
    "assayValue": 0.0861
  },
  {
    "biosequence": "ACACCTGG",
    "assayValue": 0.104
  },
  {
    "biosequence": "CTTTTTAC",
    "assayValue": 0.21
  },
  {
    "biosequence": "CTAGGCCC",
    "assayValue": -0.21
  },
  {
    "biosequence": "AGATGTAA",
    "assayValue": 0.272
  },
  {
    "biosequence": "AGGTTGAG",
    "assayValue": 0.0336
  },
  {
    "biosequence": "AGCAGTAG",
    "assayValue": -0.226
  },
  {
    "biosequence": "AAGGAAAA",
    "assayValue": 0.417
  },
  {
    "biosequence": "GAAATTTA",
    "assayValue": 0.165
  },
  {
    "biosequence": "ATGGAAAA",
    "assayValue": -0.0018
  },
  {
    "biosequence": "CAGGAAAG",
    "assayValue": 0.432
  },
  {
    "biosequence": "AGGAAAGC",
    "assayValue": 0.405
  },
  {
    "biosequence": "CTCTGTGC",
    "assayValue": 0.00777
  },
  {
    "biosequence": "AACTCTAG",
    "assayValue": 0.00906
  },
  {
    "biosequence": "CACGCGCC",
    "assayValue": 0.181
  },
  {
    "biosequence": "AAAAGGAG",
    "assayValue": 0.0569
  },
  {
    "biosequence": "TGGAAGAA",
    "assayValue": 0.00562
  },
  {
    "biosequence": "GAGGAAAC",
    "assayValue": -0.027
  },
  {
    "biosequence": "TAGGTATA",
    "assayValue": -0.0008
  },
  {
    "biosequence": "ATGCAAGG",
    "assayValue": -0.116
  },
  {
    "biosequence": "AGTGCGAT",
    "assayValue": -0.00843
  },
  {
    "biosequence": "AAGAACGC",
    "assayValue": 0.0817
  },
  {
    "biosequence": "CCGCCTTC",
    "assayValue": -0.226
  },
  {
    "biosequence": "AACTACCG",
    "assayValue": -0.0555
  },
  {
    "biosequence": "GACTTGCC",
    "assayValue": 0.127
  },
  {
    "biosequence": "CGGCAAGA",
    "assayValue": -0.115
  },
  {
    "biosequence": "CGCCACTA",
    "assayValue": -0.196
  },
  {
    "biosequence": "CCAACTAA",
    "assayValue": 0.0699
  },
  {
    "biosequence": "AGGTTCAT",
    "assayValue": -0.0206
  },
  {
    "biosequence": "ACGGAAAC",
    "assayValue": -0.122
  },
  {
    "biosequence": "GTGGCCTA",
    "assayValue": 0.0303
  },
  {
    "biosequence": "AACCATTA",
    "assayValue": 0.117
  },
  {
    "biosequence": "AACACATA",
    "assayValue": 0.312
  },
  {
    "biosequence": "AGGAAAGG",
    "assayValue": 0.371
  },
  {
    "biosequence": "CGGGGATC",
    "assayValue": -0.303
  },
  {
    "biosequence": "ACAGACGT",
    "assayValue": 0.119
  },
  {
    "biosequence": "TGGGTACA",
    "assayValue": 0.0297
  },
  {
    "biosequence": "GACCTCAC",
    "assayValue": -0.243
  },
  {
    "biosequence": "AGAAAAGC",
    "assayValue": -0.171
  },
  {
    "biosequence": "CAAGGTAG",
    "assayValue": 0.0907
  },
  {
    "biosequence": "GAACCTCA",
    "assayValue": -0.0997
  },
  {
    "biosequence": "ACCGAATC",
    "assayValue": -0.00094
  },
  {
    "biosequence": "GGGAAATA",
    "assayValue": 0.0874
  },
  {
    "biosequence": "AGGAAAGA",
    "assayValue": 0.282
  },
  {
    "biosequence": "ACGGTACG",
    "assayValue": -0.0434
  },
  {
    "biosequence": "GACCTAAA",
    "assayValue": -0.086
  },
  {
    "biosequence": "ACAACGGC",
    "assayValue": -0.0371
  },
  {
    "biosequence": "CTGCTTGC",
    "assayValue": 0.0147
  },
  {
    "biosequence": "AGTTGGAC",
    "assayValue": 0.0582
  },
  {
    "biosequence": "AGGCAAGA",
    "assayValue": 0.477
  },
  {
    "biosequence": "CGTCGTAA",
    "assayValue": 0.0759
  },
  {
    "biosequence": "AGGCAAGC",
    "assayValue": 0.489
  },
  {
    "biosequence": "TACACCGA",
    "assayValue": 0.0164
  },
  {
    "biosequence": "ATGGGCAC",
    "assayValue": 0.333
  },
  {
    "biosequence": "GGGCAAGA",
    "assayValue": 0.0525
  },
  {
    "biosequence": "AGGAAATC",
    "assayValue": 0.373
  },
  {
    "biosequence": "CCAGCTTC",
    "assayValue": -0.187
  },
  {
    "biosequence": "CTCTGTAA",
    "assayValue": 0.133
  },
  {
    "biosequence": "AGAAAGAG",
    "assayValue": -0.195
  },
  {
    "biosequence": "AGGAAATA",
    "assayValue": 0.368
  },
  {
    "biosequence": "AAGGAAAC",
    "assayValue": 0.423
  },
  {
    "biosequence": "CTGCCTCC",
    "assayValue": -0.215
  },
  {
    "biosequence": "CTCTGTAC",
    "assayValue": 0.0774
  },
  {
    "biosequence": "AGGGTCAA",
    "assayValue": -0.0327
  },
  {
    "biosequence": "TCGATAGA",
    "assayValue": -0.0212
  },
  {
    "biosequence": "AATGAGCT",
    "assayValue": -0.0919
  },
  {
    "biosequence": "ACCTGTCA",
    "assayValue": -0.0178
  },
  {
    "biosequence": "CGGAAATC",
    "assayValue": -0.109
  },
  {
    "biosequence": "ACGAAAGG",
    "assayValue": 0.153
  },
  {
    "biosequence": "CAGGTCAG",
    "assayValue": -0.242
  },
  {
    "biosequence": "GTATGTGA",
    "assayValue": 0.0776
  },
  {
    "biosequence": "GACGATCC",
    "assayValue": -0.0936
  },
  {
    "biosequence": "AGGGTCTA",
    "assayValue": -0.153
  },
  {
    "biosequence": "TAGGTACA",
    "assayValue": 0.36
  },
  {
    "biosequence": "CGGCAAGC",
    "assayValue": -0.0333
  },
  {
    "biosequence": "GCGTTTCC",
    "assayValue": 0.0476
  },
  {
    "biosequence": "AAGGTACT",
    "assayValue": 0.364
  },
  {
    "biosequence": "ATAGACCC",
    "assayValue": 0.178
  },
  {
    "biosequence": "CAGGAAAA",
    "assayValue": 0.427
  },
  {
    "biosequence": "AAGGTACG",
    "assayValue": 0.436
  },
  {
    "biosequence": "AGCGAGAG",
    "assayValue": -0.117
  },
  {
    "biosequence": "CCAAGCGG",
    "assayValue": -0.135
  },
  {
    "biosequence": "CTTGATAC",
    "assayValue": 0.00505
  },
  {
    "biosequence": "CAGCTCTA",
    "assayValue": -0.168
  },
  {
    "biosequence": "AAACCTCG",
    "assayValue": -0.21
  },
  {
    "biosequence": "CGCGAGAC",
    "assayValue": -0.11
  },
  {
    "biosequence": "ATCGCCAG",
    "assayValue": -0.289
  },
  {
    "biosequence": "CAGAAAAG",
    "assayValue": -0.0566
  },
  {
    "biosequence": "AAGGGGGC",
    "assayValue": -0.138
  },
  {
    "biosequence": "GCCTCCGA",
    "assayValue": 0.0149
  }
]

Reference for the values: the supplement of paper PMC3334620
